Measured inhibition at 1 µM accompanies every entry in the list below.
ASSAYED TARGET: human recombinant adrenergic α2B receptor (Homo sapiens)
Construct: expressed in transfected cells; host or cells: CHO-K1 cells
Sequence (P18089 whole entry): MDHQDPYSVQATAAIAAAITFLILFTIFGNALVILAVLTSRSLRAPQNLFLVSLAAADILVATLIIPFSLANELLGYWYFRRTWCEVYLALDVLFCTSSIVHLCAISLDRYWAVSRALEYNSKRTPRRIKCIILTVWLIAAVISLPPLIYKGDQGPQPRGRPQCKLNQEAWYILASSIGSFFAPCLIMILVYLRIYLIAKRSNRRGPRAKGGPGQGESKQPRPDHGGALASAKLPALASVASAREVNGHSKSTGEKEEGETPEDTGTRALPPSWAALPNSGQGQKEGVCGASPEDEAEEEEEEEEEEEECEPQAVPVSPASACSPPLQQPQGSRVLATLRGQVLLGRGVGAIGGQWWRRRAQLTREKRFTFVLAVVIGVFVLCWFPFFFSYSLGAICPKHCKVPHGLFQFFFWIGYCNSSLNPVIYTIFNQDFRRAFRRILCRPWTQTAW
ASSAY NAME: Adrenergic α2B radioligand binding ([3H]Rauwolscine)
EXPERIMENTAL SETUP: 1 μM; read-out: Adrenergic α2B, inhibition of ligand binding (1 μM)
Value expressed in %; do not type the unit.

Reference set (6 entries):
molecule="CN1C2CCC1c1c(n(CCC(=O)O)c3ccc(Cl)cc13)C2 (stereo not shown)" result_type="inhibition at 1 µM" endpoint_value=-8
molecule="Cc1ccc(C#Cn2c3c(c4cc(Cl)ccc42)C2CCC(C3)N2C)cn1 (stereo not shown)" result_type="inhibition at 1 µM" endpoint_value=115
molecule="Cc1ccc2c(c1)c1c(n2CCc2cncc(Cl)c2)CC2CCC1N2C (stereo not shown)" result_type="inhibition at 1 µM" endpoint_value=104
molecule="Cc1ccc2c(c1)c1c(n2CCc2cnc(C)nc2)CC2CCC1N2C (stereo not shown)" result_type="inhibition at 1 µM" endpoint_value=40
molecule="Cc1ccc(CCn2c3c(c4ccccc42)C2CCC(C3)N2C)cn1 (stereo not shown)" result_type="inhibition at 1 µM" endpoint_value=34
molecule="CN1C2CCC1c1c(n(CCC(=O)N3CCOCC3)c3ccc(Cl)cc13)C2 (stereo not shown)" result_type="inhibition at 1 µM" endpoint_value=7

Now let's try a different one.
Quote inhibition at 1 µM reported for Cc1ccc(CCn2c3c(c4cc(Cl)ccc42)C2CCC(C3)N2C)cn1 (stereo not shown) please. 87

###

ASSAYED TARGET: human recombinant serotonin (5-Hydroxytryptamine) 5-HT2A receptor (Homo sapiens)
Construct: expressed in transfected cells; host or cells: CHO-K1 cells
ASSAY NAME: Serotonin 5-HT2A radioligand binding ([3H]Ketanserin)
EXPERIMENTAL SETUP: read-out: Serotonin 5-HT2A, inhibition of ligand binding (1 μM)
List of inhibition at 1 µM values.
Hi! Could you send only the number? It should be in %, unit omitted.

Illustrative cases are given below, each with its answer.
compound="C/C(=C\\n1c2c(c3cc(Cl)ccc31)C1CCC(C2)N1C)c1ccc(Cl)c(Cl)c1 (stereo not shown) [Compound 132]" assayed_target="human recombinant serotonin (5-Hydroxytryptamine) 5-HT2A receptor (Homo sapiens)" result_type="inhibition at 1 µM" endpoint_value=100
compound="Cc1ccc2c(c1)c1c(n2CCCc2ccc(Cl)cc2)CC2CCC1N2C (stereo not shown) [Compound 85]" assayed_target="human recombinant serotonin (5-Hydroxytryptamine) 5-HT2A receptor (Homo sapiens)" result_type="inhibition at 1 µM" endpoint_value=95
compound="CN1C2CCC1c1c(n(CCC(=O)N3CCNC(=O)C3)c3ccc(Cl)cc13)C2 (stereo not shown) [Compound 3]" assayed_target="human recombinant serotonin (5-Hydroxytryptamine) 5-HT2A receptor (Homo sapiens)" result_type="inhibition at 1 µM" endpoint_value=3

Then there is this compound:
Let me know recorded inhibition at 1 µM for Cc1cncc(CCn2c3c(c4cc(C)ccc42)C2CCC(C3)N2C)c1 (stereo not shown) [Compound 90] , thanks. 30

###

Consider the following molecules and their measured inhibition at 1 µM readings.
ASSAYED TARGET: human recombinant dopamine D2L receptor (Homo sapiens, UniProt P14416)
Construct: expressed in transfected cells; host or cells: CHO cells
Sequence (P14416 whole entry): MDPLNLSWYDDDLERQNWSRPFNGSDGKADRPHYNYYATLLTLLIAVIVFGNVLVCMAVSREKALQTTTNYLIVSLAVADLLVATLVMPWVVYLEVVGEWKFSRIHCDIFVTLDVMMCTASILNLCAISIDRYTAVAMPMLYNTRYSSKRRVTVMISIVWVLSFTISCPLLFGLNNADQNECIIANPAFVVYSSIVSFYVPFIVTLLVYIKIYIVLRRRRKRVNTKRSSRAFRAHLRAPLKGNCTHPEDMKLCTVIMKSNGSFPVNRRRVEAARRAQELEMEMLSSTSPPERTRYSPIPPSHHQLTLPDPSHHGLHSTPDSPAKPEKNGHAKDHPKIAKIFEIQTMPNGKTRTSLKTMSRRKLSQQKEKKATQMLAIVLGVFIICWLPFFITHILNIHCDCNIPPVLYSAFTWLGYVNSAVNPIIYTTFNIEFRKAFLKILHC
ASSAY NAME: Dopamine D2L radioligand binding ([3H]Spiperone)
EXPERIMENTAL SETUP: read-out: Dopamine (1 μM) D2L, inhibition of ligand binding
The response must be a number in % with no trailing unit.

Guide cases for inhibition at 1 µM, answers given:
molecule="C/C(=C\\n1c2c(c3cc(C)ccc31)C1CCC(C2)N1C)c1ccc(Cl)cc1Cl (stereo not drawn)" unit_tag=% endpoint_value=-16
molecule="Cc1ccc(CCn2c3c(c4cc(Cl)ccc42)C2CCC(C3)N2C)cn1 (stereo not drawn)" unit_tag=% endpoint_value=9
molecule="C/C(=C\\n1c2c(c3cc(Cl)ccc31)C1CCC(C2)N1C)c1cccnc1 (stereo not drawn)" unit_tag=% endpoint_value=21
molecule="C/C(=C\\n1c2c(c3cc(C)ccc31)C1CCC(C2)N1C)c1ccc(F)cc1 (stereo not drawn)" unit_tag=% endpoint_value=33
molecule="CN1C2CCC1c1c(n(CCC(=O)N3CCSCC3)c3ccc(Cl)cc13)C2 (stereo not drawn)" unit_tag=% endpoint_value=-4
molecule="Cc1ccc2c(c1)c1c(n2CCc2cncc(Cl)c2)CC2CCC1N2C (stereo not drawn)" unit_tag=% endpoint_value=4

Tell me inhibition at 1 µM reported for Cc1ccc(CCn2c3c(c4cc(Cl)ccc42)C2CCC(C3)N2C)cc1 (stereo not drawn) 44

Recall and state the measured inhibition at 1 µM for "CN1[C@H]2CC[C@@H]1c1c(n(CCc3ccc(F)cc3)c3ccc(F)cc13)C2" . 50

Annotate the molecule COc1ccc(C#Cn2c3c(c4cc(C)ccc42)C2CCC(C3)N2C)cc1F (stereo not drawn) with its measured inhibition at 1 µM. 10

Hello, please tell me recorded inhibition at 1 µM for this one: Cc1cncc(CCn2c3c(c4cc(C)ccc42)C2CCC(C3)N2C)c1 (stereo not drawn) -4

###

ASSAYED TARGET: human recombinant adrenergic α2A receptor (Homo sapiens, UniProt P08913)
Construct: expressed in transfected cells; host or cells: insect Sf9 cells
Sequence (P08913 1-465): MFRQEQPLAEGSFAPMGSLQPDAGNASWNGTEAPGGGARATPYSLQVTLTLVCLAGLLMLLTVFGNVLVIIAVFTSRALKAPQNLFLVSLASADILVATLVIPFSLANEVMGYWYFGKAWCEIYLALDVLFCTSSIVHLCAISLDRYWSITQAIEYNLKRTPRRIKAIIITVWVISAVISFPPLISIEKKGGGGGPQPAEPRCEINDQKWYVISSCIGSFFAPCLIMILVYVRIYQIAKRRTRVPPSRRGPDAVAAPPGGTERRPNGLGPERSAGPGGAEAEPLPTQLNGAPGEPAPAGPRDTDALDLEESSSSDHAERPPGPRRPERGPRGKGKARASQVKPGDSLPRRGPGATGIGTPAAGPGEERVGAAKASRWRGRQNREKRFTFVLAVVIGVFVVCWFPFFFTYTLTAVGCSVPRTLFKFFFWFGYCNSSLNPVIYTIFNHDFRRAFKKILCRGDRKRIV
ASSAY NAME: Adrenergic α2A radioligand binding ([3H]MK-912)
EXPERIMENTAL SETUP: 1 μM; read-out: Adrenergic α2A, inhibition of ligand binding (1 μM)
RESULT TYPE: inhibition at 1 µM

The following compounds have reported results that may help.
compound="CN1C2CCC1c1c(n(CCCc3ccc(Cl)cc3)c3ccc(Cl)cc13)C2 (centres unmarked) [Compound 39]" endpoint_value=68%
compound="C/C(=C\\n1c2c(c3cc(C)ccc31)C1CCC(C2)N1C)c1ccc(Cl)cc1Cl (centres unmarked) [Compound 163]" endpoint_value=95%
compound="CN1C2CCC1c1c(n(CCc3ccc(C(F)(F)F)nc3)c3cc(F)c(Cl)cc13)C2 (centres unmarked) [Compound 77]" endpoint_value=30%
compound="CN1C2CCC1c1c(n(CCc3ccc(F)cc3)c3ccc(F)cc13)C2 (centres unmarked) [Compound 35]" endpoint_value=93%
compound="Cc1ccc2c(c1)c1c(n2CCc2nc(-c3ccccc3)cs2)CC2CCC1N2C (centres unmarked) [Compound 114]" endpoint_value=46%
compound="CC(=O)N1CCN(C(=O)CCn2c3c(c4cc(Cl)ccc42)C2CCC(C3)N2C)CC1 (centres unmarked) [Compound 8]" endpoint_value=-2%
compound="CN1C2CCC1c1c(n(CC(=O)c3ccccc3)c3ccc(Cl)cc13)C2 (centres unmarked) [Compound 110]" endpoint_value=48%

Could you now consider this next compound?
Write down inhibition at 1 µM measured for item Cc1ccc2c(c1)c1c(n2CCc2ccc(F)cc2)CC2CCC1N2C (centres unmarked) [Compound 62] 96%

###

// values below are reported inhibition at 1 µM
ASSAYED TARGET: human recombinant histamine H1 receptor (Homo sapiens, UniProt P35367)
Construct: expressed in transfected cells; host or cells: CHO cells
Sequence (P35367 whole entry): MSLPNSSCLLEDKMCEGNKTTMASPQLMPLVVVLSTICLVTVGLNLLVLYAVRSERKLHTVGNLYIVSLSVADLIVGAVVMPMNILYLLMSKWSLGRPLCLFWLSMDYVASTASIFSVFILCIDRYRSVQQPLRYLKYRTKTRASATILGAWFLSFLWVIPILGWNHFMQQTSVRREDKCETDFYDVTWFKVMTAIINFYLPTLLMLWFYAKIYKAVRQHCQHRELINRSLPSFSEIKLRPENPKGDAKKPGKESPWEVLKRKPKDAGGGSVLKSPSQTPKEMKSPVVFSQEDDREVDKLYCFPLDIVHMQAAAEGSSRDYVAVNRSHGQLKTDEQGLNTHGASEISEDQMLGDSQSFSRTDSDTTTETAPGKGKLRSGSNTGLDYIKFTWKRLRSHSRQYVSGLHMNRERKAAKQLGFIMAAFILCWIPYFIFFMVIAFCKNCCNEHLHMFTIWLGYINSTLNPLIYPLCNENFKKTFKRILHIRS
ASSAY NAME: Histamine H1 radioligand binding ([3H]Pyrilamine)
EXPERIMENTAL SETUP: compound at 1 μM; inhibition of specific [3H]Pyrilamine binding; read-out: Histamine Binding (1 μM) H1, Percentage Inhibition
Could you give me the number in %? Just the number is fine.

compound="CN1C2CCC1c1c(n(CCC(=O)N3CC[S+]([O-])CC3)c3ccc(Cl)cc13)C2 (centres unmarked) [Compound 10]" result_type="inhibition at 1 µM" unit_tag=% endpoint_value=7

Provide measured inhibition at 1 µM on human recombinant histamine H1 receptor (Homo sapiens, UniProt P35367) for CN1C2CCC1c1c(n(CCC(=O)N3CCCC3)c3ccc(Cl)cc13)C2 (centres unmarked) [Compound 5] please. 32

Answer briefly: inhibition at 1 µM recorded on human recombinant histamine H1 receptor (Homo sapiens, UniProt P35367) for Cc1ccc2c(c1)c1c(n2CCc2cncc(Cl)c2)CC2CCC1N2C (centres unmarked) [Compound 88] 95

Under human recombinant histamine H1 receptor (Homo sapiens, UniProt P35367): report inhibition at 1 µM of CN1C2CCC1c1c(n(CCc3cncc(Cl)c3)c3ccc(Cl)cc13)C2 (centres unmarked) [Compound 87] . 96

Identify measured inhibition at 1 µM obtained with human recombinant histamine H1 receptor (Homo sapiens, UniProt P35367) for COc1ccc(CCn2c3c(c4cc(C)ccc42)C2CCC(C3)N2C)cc1 (centres unmarked) [Compound 83] . 98
